# assayed target: human CD47 on cells (SHP-77 tumor cells, human red blood cells, CCRF-CEM cells, human CD47 CHO-K1 stable cell … (human, UniProt Q08722 19-323))
# test name: cell-based or functional assay
Known CCRF-CEM phagocytosis EC50 of a selection of binders

{"binder": "108VH5.M21 / 108VL1.M5 (antibody, human IgG4 S228P, kappa, V domains shown, Full-length IgG4 (S228P), kappa; also called VH5.M21 VL1.M5) VH: EVQLVQSGAEVKKPGASVKVSCKASGYTFTHHWMHWVRQAPGQGLEWMGMIDASDFETRYAQKFQGRVTMTRDTSTSTVYMELSSLRSEDTAVYYCARLGRYYFDYWGQGTLVTVSS VL: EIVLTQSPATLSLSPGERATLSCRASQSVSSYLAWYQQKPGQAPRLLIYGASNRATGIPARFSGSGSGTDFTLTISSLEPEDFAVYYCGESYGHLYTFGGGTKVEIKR", "CCRF-CEM phagocytosis EC50": "0.32 nM"}
{"binder": "108VH10.Mr / 108VL10.Me (antibody, V domains shown, 4D5-framework series; constant regions not restated for this series; also called VH10.Mr VL10.Me) VH: EVQLVESGGGLVQPGGSLRLSCAASGFTFSHHWIHWVRQAPGKGLEWVAMIDASDSETRLVDSVKGRFTISADTSKNTAYLQMNSLRAEDTAVYYCSRLGRYYFDYWGQGTLVTVSS VL: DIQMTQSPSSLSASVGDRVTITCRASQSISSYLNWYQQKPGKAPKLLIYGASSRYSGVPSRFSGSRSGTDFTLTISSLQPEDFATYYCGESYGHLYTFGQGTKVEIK", "CCRF-CEM phagocytosis EC50": "0.43 nM"}
{"binder": "108VH5.M23 / 108VL1.M5 (antibody, human IgG4 S228P, kappa, V domains shown, Full-length IgG4 (S228P), kappa; also called VH5.M23 VL1.M5) VH: EVQLVQSGAEVKKPGASVKVSCKASGYTFTHHWMHWVRQAPGQGLEWMGMIDASDKETRYAQKFQGRVTMTRDTSTSTVYMELSSLRSEDTAVYYCARLGRYYFDYWGQGTLVTVSS VL: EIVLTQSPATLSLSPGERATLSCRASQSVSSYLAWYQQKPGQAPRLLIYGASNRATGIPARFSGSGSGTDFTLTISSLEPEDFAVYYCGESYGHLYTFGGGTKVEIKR", "CCRF-CEM phagocytosis EC50": "0.33 nM"}
{"binder": "108VH10.Mk / 108VL10.Me (antibody, V domains shown, 4D5-framework series; also called VH10.Mk VL10.Me) VH: EVQLVESGGGLVQPGGSLRLSCAASGFTFSHHWIHWVRQAPGKGLEWVAMIDASDSETRLSQKVKDRFTISADTSKNTAYLQMNSLRAEDTAVYYCSRLGRYYFDYWGQGTLVTVSS VL: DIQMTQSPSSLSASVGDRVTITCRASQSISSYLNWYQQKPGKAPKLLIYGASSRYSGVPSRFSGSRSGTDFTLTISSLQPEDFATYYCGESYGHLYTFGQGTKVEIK", "CCRF-CEM phagocytosis EC50": "0.29 nM"}
